Data provenance: patent US20040023972A1

molecular target: NO synthase (Rattus norvegicus, UniProt P29476); construct: the supernatant was then removed by decantation and frozen in portions at −80° C; from tissue; host or cells: rat cerebellum, 20,000 g supernatant of homogenate; test: HTS-NOS assay (NOS assay): conversion of radioactive arginine, cation-exchanger filter plate; assay type: biochemical; conditions: read-out: HTS-NOS assay: % inhibition (10 μM)
Threshold check on inhibition at 10 µM: at or above 60% gives true (1), strictly below gives false (0).

smilesnotation=Cc1cc(C)n2c(NC3CCCCC3)c(C3CCCCC3)nc2c1 categorylabel="true (1)"
smilesnotation=Cc1ccn2c(NC3CCCCC3)c(-c3cccnc3)nc2c1 categorylabel="true (1)"
smilesnotation=CC(=O)N(c1c(-c2cc(C)c(C)o2)nc2ccc(C)cn12)C(C)(C)C categorylabel="false (0)"
smilesnotation=CCCCNc1c(-c2ccc(C(=O)O)s2)nc2cnccn12 categorylabel="false (0)"
smilesnotation=CC(=O)N(c1c(-c2ccc(Cl)s2)nc2ncccn12)C(C)(C)CC(C)(C)C categorylabel="false (0)"

Asked: Please check the record Cc1ccn2c(Nc3c(C)cccc3C)c(-c3ccc(CO)o3)nc2n1 and state if its inhibition at 10 µM is at or above 60%.
Given back: false (0)

Asked: Please check the record CC(=O)N(c1c(-c2cccc(Cl)c2Cl)nc2ccccn12)C(C)(C)C and state if its inhibition at 10 µM is at or above 60%.
Given back: false (0)

Asked: Please check the record CC(=O)N(c1c(-c2cccnc2)nc2cc(C)ccn12)C(C)(C)CC(C)(C)C and state if its inhibition at 10 µM is at or above 60%.
Given back: false (0)

Asked: Please check the record CC(=O)N(c1c(-c2cccc3ccccc23)nc2cc(C)ccn12)C(C)(C)C and state if its inhibition at 10 µM is at or above 60%.
Given back: false (0)

---

Entries and their measured IC50 follow.
molecular target: NOS (Rattus norvegicus, UniProt P29476)
Structures can show the parent of a compound that is named as a salt.
The figure you give is taken to be in µM; do not add the unit.

Some molecules with recorded IC50:
molecule="Cc1ccn2c(NC(C)(C)CC(C)(C)C)c(-c3ccccc3F)nc2c1 [Example 298, hydrochloride]" targetdesc="NOS (Rattus norvegicus, UniProt P29476)" recordedresult=4.3
molecule="Cc1ccn2c(NC3CCCCC3)c(-c3ccccc3C(F)(F)F)nc2c1 [Example 292, hydrochloride]" targetdesc="NOS (Rattus norvegicus, UniProt P29476)" recordedresult=2.4
molecule="Cc1cc(C)n2c(NC3CCCCC3)c(-c3ccncc3)nc2c1 [Example 295, hydrochloride]" targetdesc="NOS (Rattus norvegicus, UniProt P29476)" recordedresult=9.2

Pending molecule:
Asked: Which IC50 value is on record for Cc1cc(C)n2c(NC(C)(C)CC(C)(C)C)c(-c3ccco3)nc2c1 [Example 296, hydrochloride] ?
Given back: 2.5

---

Entries and their measured inhibition at 10 µM follow.
molecular target: NO synthase (Rattus norvegicus); construct: the supernatant was then removed by decantation and frozen in portions at −80° C; from tissue; host or cells: rat cerebellum, 20,000 g supernatant of homogenate; assay: HTS-NOS assay (NOS assay): conversion of radioactive arginine, cation-exchanger filter plate; format: biochemical; settings: read-out: HTS-NOS assay: % inhibition (10 μM)
The figure you give is taken to be in %; do not add the unit.

smilesnotation=Cc1cc(C)n2c(NC(C)(C)CC(C)(C)C)c(-c3ccncc3)nc2c1 valuekind="inhibition at 10 µM" recordedresult=60

Asked: Which inhibition at 10 µM value is on record for Cc1cc(C)n2c(NC(C)(C)CC(C)(C)C)c(-c3cc4ccccc4o3)nc2c1 ?
Given back: 53

Asked: Which inhibition at 10 µM value is on record for Cc1ccc(-c2nc3cc(C)ccn3c2NC(C)(C)CC(C)(C)C)cc1 ?
Given back: 58
